Reference for the values: patent US20260007601A1

assay_protocol: Encapsulation rate, drug loading concentration and total RNA concentration detection (RiboGreen)
Format: physicochemical
particulars: LNP formulation of the named lipid
property: Total RNA concentration (µg/mL)

Measured Total RNA concentration of CCCCCCCCCCCOC(=O)CCCCCN(CCO)CCCCCCCC(=O)OC(CCCCCCCC)CCCCCCCC [SM-102, reference compound] : 35.27

Measured Total RNA concentration of CCCCCCCCCCCOC(=O)CCCCCN(CCCCCCCC(=O)OC(CCCCCCC)CCCCCCC)CCN(C)CCO : 41.69

Measured Total RNA concentration of CCCCCCCCCCOC(=O)CCCN(CCCCCC(=O)OCC(CCCCCCCC)CCCCCCCC)CCN(C)CCNC : 32.98

Measured Total RNA concentration of CCCCCCCCCCOC(=O)CCCN(CCCCCC(=O)OCCC(CCCCCC)CCCCCC)C(=O)SCCCN(C)C : 43.92

Measured Total RNA concentration of CCCCCCC(CCCCCC)CCOC(=O)CCCCCN(CCCCCC(=O)OCCC(CCCCCC)CCCCCC)CCN(CCO)CCO : 39.46

Measured Total RNA concentration of CCCCCCCCCCCOC(=O)CCCCCN(CCCCCCCC(=O)OC(CCCCCCCC)CCCCCCCC)CCN(CC)CCO : 42.98

Measured Total RNA concentration of CCCCCCCCCCOC(=O)CCCN(CCCCCC(=O)OCC(CCCCCCCC)CCCCCCCC)CCOC(=O)SCCCN(C)C : 46.66

Measured Total RNA concentration of CCCCCCCCCCCOC(=O)CCCCCN(CCCCCCCC(=O)OC(CCCCCCCC)CCCCCCCC)CCN(C)CCO : 45.07

Measured Total RNA concentration of CCCCCCCCC(CCCCCCCC)OC(=O)CCCCCN(CCCCCC(=O)OC(CCCCCCCC)CCCCCCCC)CCN(C)CCNC : 39.31

Measured Total RNA concentration of CCCCCCCCCCOC(=O)CCCN(CCCCCC(=O)OCC(CCCCCCCC)CCCCCCCC)CCN(C)CCO : 43.63

Measured Total RNA concentration of CCCCCCCCC(CCCCCC)C(=O)OCCCCCCN(CCCCO)CCCCCCOC(=O)C(CCCCCC)CCCCCCCC (stereo not shown) [ALC-0315, reference compound] : 37.12

Measured Total RNA concentration of CCCCCCC(CCCCCC)CCOC(=O)CCCCCN(CCCCCC(=O)OCCC(CCCCCC)CCCCCC)CCN(C)CCNC : 39.53

Measured Total RNA concentration of CCCCCCCCCCOC(=O)CCCN(CCO)CCCCCC(=O)OCC(CCCCCCCC)CCCCCCCC [YK-009, reference compound] : 38.62

Measured Total RNA concentration of CCCCCCC(CCCCCC)CCOC(=O)CCCCCN(CCCCCC(=O)OCCC(CCCCCC)CCCCCC)CCN(C)CCO : 43.92

Measured Total RNA concentration of CCCCCCCCCCOC(=O)CCCN(CCCCCC(=O)OCCC(CCCCCC)CCCCCC)CCOC(=O)SCCCN(C)C : 46.66

Measured Total RNA concentration of CCCCCCCCCCCCC(O)CN(C)CCCCCC(=O)OCC(CCCCCC)CCCCCCCC (stereo not shown) [HHMA, reference compound] : 37.84

----------
assay_protocol: Encapsulation rate, drug loading concentration and total RNA concentration detection (RiboGreen)
Assay type: physicochemical
property: total RNA concentration, times that of ALC-0315 (times)
I only need the number, in times, no unit after it.

Known results for compounds:
Measured total RNA concentration, times that of ALC-0315 of CCCCCCCCC(CCCCCCCC)COC(=O)CCCCCN(CCCCCC(=O)OCC(CCCCCCCC)CCCCCCCC)CCN(C)CCO : 1.17

Measured total RNA concentration, times that of ALC-0315 of CCCCCCCCCCOC(=O)CCCN(CCCCCC(=O)OCC(CCCCCCCC)CCCCCCCC)CCN(C)CCO : 1.18

Measured total RNA concentration, times that of ALC-0315 of CCCCCCCCCCCOC(=O)CCCCCN(CCCCCCCC(=O)OCC(CCCCCCCC)CCCCCCCC)CCN(C)CCO : 1.16

Measured total RNA concentration, times that of ALC-0315 of CCCCCCCCCCCOC(=O)CCCCCN(CCCCCCCC(=O)OC(CCCCCCCC)CCCCCCCC)CCN(C)CCO : 1.21

New cases:
Measured total RNA concentration, times that of ALC-0315 of CCCCCCCCCCCOC(=O)CCCCCN(CCCCCCCC(=O)OC(CCCCCCC)CCCCCCC)CCN(C)CCO : 1.12

----------
Tested on: 293T cells
assay_protocol: Cell survival rate assay (CCK-8)
Format: cell-based
particulars: difference of rates
From the text: Cell recovery and passaging: 293T cells were recovered and cultured in culture dishes to the required cell number. Plating: The cells in the culture dish were digested, counted, plated in a 96-well plate at 10,000 cells per well, or in a 12-well plate at 150,000 cells per well, and cultured overnight until the cells adhered to the wall. Cell recovery and passage: The method was the same as in Example 3. Plating: The method was the same as Example 3. […]
property: cell survival rate higher than that of compound 21 (%)
I only need the number, in %, no unit after it.

Measured cell survival rate higher than that of compound 21 of CCCCCCCCCCCOC(=O)CCCCCN(CCCCCCCC(=O)OC(CCCCCCCC)CCCCCCCC)CCN(C)CCO : 6.91

Now look at this entry.
Measured cell survival rate higher than that of compound 21 of CCCCCCCCCCOC(=O)CCCN(CCCCCC(=O)OCC(CCCCCCCC)CCCCCCCC)CCN(C)CCO : 4.86

----------
assay_protocol: Particle size and polydispersity index (PDI) of nanolipid particles, dynamic light scattering
Type: physicochemical
particulars: LNP formulation prepared from the named cationic lipid, 25° C
property: Particle size (nm)

Known results for compounds:
Measured Particle size of CCCCCCCCCCCOC(=O)CCCCCN(CCCCCCCC(=O)OCCC(CCCCCC)CCCCCC)CCN(C)CCO [YK-203] : 235

Measured Particle size of CCCCCCCCC(CCCCCCCC)OC(=O)CCCCCN(CCCCCC(=O)OC(CCCCCCCC)CCCCCCCC)CCN(CCO)CCO [YK-213] : 207

Measured Particle size of CCCCCCCCCCCOC(=O)CCCCCN(CCCCCCCC(=O)OC(CCCCCCCC)CCCCCCCC)CCN(C)CCO [YK-201] : 205

Measured Particle size of CCCCCCCCCCOC(=O)CCCN(CCCCCC(=O)OCC(CCCCCCCC)CCCCCCCC)CCN(C)CCOC [YK-216] : 219

Measured Particle size of CCCCCCCCC(CCCCCCCC)COC(=O)CCCCCN(CCCCCC(=O)OCC(CCCCCCCC)CCCCCCCC)CCN(C)CCNC [YK-223] : 211

Measured Particle size of CCCCCCCCCCOC(=O)CCCN(CCCCCC(=O)OCCC(CCCCCC)CCCCCC)CCOC(=O)SCCCN(C)C [YK-217] : 210

Measured Particle size of CCCCCCCCCCCOC(=O)CCCCCN(CCCCCCCC(=O)OC(CCCCCCC)CCCCCCC)CCN(C)CCO [YK-206] : 216

(a) CCCCCCCCC(CCCCCC)C(=O)OCCCCCCN(CCCCO)CCCCCCOC(=O)C(CCCCCC)CCCCCCCC (stereo not drawn) [ALC-0315, reference compound]
(b) CCCCCCCCCCCCC(O)CN(C)CCCCCC(=O)OCC(CCCCCC)CCCCCCCC (stereo not drawn) [HHMA, reference compound]
stdin: Returns: the label, a or b , whose recorded Particle size is the lower number. Identify your pick by its label.
stdout: b

----------
assay_protocol: Particle size and polydispersity index (PDI) of nanolipid particles, dynamic light scattering
Format: physicochemical
particulars: LNP formulation prepared from the named cationic lipid, 25° C
Protocol: The particle size and polydispersity index (PDI) were determined by dynamic light scattering method using a Malvern laser particle size analyzer. 10 μL of liposome solution was diluted to 1 mL with RNase-free deionized water and added to a sample pool. Each sample was measured three times. The measurement conditions were: 90° scattering angle, 25° C.
property: Particle size (nm)

Known results for molecules:
Measured Particle size of CCCCCCC(CCCCCC)CCOC(=O)CCCCCN(CCCCCC(=O)OCCC(CCCCCC)CCCCCC)CCN(C)CCO [YK-211] : 222

Measured Particle size of CCCCCCCCCCOC(=O)CCCN(CCO)CCCCCC(=O)OCC(CCCCCCCC)CCCCCCCC [YK-009, reference compound] : 202

Measured Particle size of CCCCCCCCC(CCCCCCCC)COC(=O)CCCCCN(CCCCCC(=O)OCC(CCCCCCCC)CCCCCCCC)CCN(C)CCO [YK-209] : 226

Measured Particle size of CCCCCCCCCCOC(=O)CCCN(CCCCCC(=O)OCC(CCCCCCCC)CCCCCCCC)C(=O)SCCCN(C)C [YK-219] : 217

Measured Particle size of CCCCCCCCCCOC(=O)CCCN(CCCCCC(=O)OCC(CCCCCCCC)CCCCCCCC)CCN(C)CCO [YK-207] : 192

(1) CCCCCCCCCCCOC(=O)CCCCCN(CCCCCCCC(=O)OC(CCCCCCC)CCCCCCC)CCN(CC)CCO [YK-205]
(2) CCCCCCC(CCCCCC)CCOC(=O)CCCCCCCN(CCO)CCCCCCCC(=O)OCCC(CCCCCC)CCCCCC [Compound 23, reference compound]
stdin: For this pair, 1 and 2 , which shows a numerically higher Particle size? Identify your pick by its label.
stdout: 1
(1: 219 nm, 2: 138 nm)
